Measured MIC (E.coli)
Numbers only here, please. The scale is µg/mL.

# COMPOUND, VALUE_UNITS, MIC
records = [
    ("O=[N+]([O-])C=Cc1cc(Cl)ccc1O [drawing 11]", "µg/mL", 50),
    ("CC(=Cc1cccc(O)c1)[N+](=O)[O-] [drawing 8]", "µg/mL", 3.12),
]

--- query ---
Ask | What does the record list as MIC for CC(=Cc1ccc(OC(=O)Nc2ccc(C)cc2)cc1)[N+](=O)[O-] [drawing 3] ?
Reply | 6.25

###

The entries below are paired with their reported MIC.
Test system: microsporum gypseum
Give the value in µg/mL but do not write µg/mL after it.

// worked examples, MIC included
# MOLECULE, VALUE_UNITS, MIC
measured = [
    ("CC(=Cc1ccc(OC(=O)Nc2ccc(Br)cc2)cc1)[N+](=O)[O-] [drawing 14]", "µg/mL", 1.56),
    ("CC(=Cc1ccc(OC(=O)Nc2ccccc2)cc1)[N+](=O)[O-] [drawing 17]", "µg/mL", 3.12),
    ("CC(=Cc1cccc(O)c1)[N+](=O)[O-] [drawing 18]", "µg/mL", 1.56),
]

Ask | Reported MIC for microsporum gypseum, given CC(=Cc1ccc(O)c(Cl)c1)[N+](=O)[O-] [drawing 20] ?
Reply | 1.56

Ask | Follow-up entry: CC(=Cc1ccc(OC(=O)NC2CCCCC2)cc1)[N+](=O)[O-] [drawing 16]
Reply | 6.25

Ask | Subsequent entry: CC(=Cc1ccc(OC(=O)Nc2ccc(Br)cc2)c(Cl)c1)[N+](=O)[O-] [drawing 22]
Reply | 1.56
